Biological target: Leishmania amazonensis recombinant arginase (L-ARG) (Leishmania amazonensis, UniProt O96394)
Test: Arginase inhibition test, recombinant L-ARG (urea, Berthelot method)
Assay type: biochemical
Conditions: 50 mM L-arginine, pH 9.5, 37 °C, 15 min; read-out: IC50 (half inhibitory activity), L-ARG
RESULT TYPE: IC50 (nM)

INSERT INTO results (molecule_smiles, result_number) VALUES
  ('O=C(/C=C/c1ccc(O)c(O)c1)NCCc1ccc(O)c(O)c1', 1800);

a: O=C(/C=C/c1ccc(O)c(O)c1)NCCc1ccc(O)cc1
b: O=C(/C=C/c1ccc(O)cc1)NCCc1ccc(O)c(O)c1
Data request: From the recorded data, which exceeds the other in IC50: a or b ? Record your answer as the label of the chosen record.
Data returned: a
(a: 5600 nM, b: 2500 nM)
